- ASSAY REMARKS: Pharmacokinetics after intravenous and oral administration in rats
- Type: in vivo
- EXPERIMENTAL CONTEXT: rat, plasma, iv, 1 mg/kg
What AUC(0-t) was measured for each of the following?
API: value field is a number in ng·h/mL; no unit string.

Input line: Would you kindly share the measured AUC(0-t) for CC[C@H](Nc1ncnc(N)c1-c1noc(C)n1)c1nc2cccc(-c3cnn(C)c3)c2c(=O)n1C1CC1 ?
Output line: 511

Input line: Cool, now C[C@H](Nc1ncnc(N)c1-c1nnn(C)n1)c1nc2cccc(-c3cnn(C)c3)c2c(=O)n1C1CC1
Output line: 841

Input line: Query C[C@H](Nc1ncnc(N)c1-c1nnn(C)n1)c1nc2cccc(-c3cnn(C)c3)c2c(=O)n1-c1ccccc1 next
Output line: 2510
